- assay-system: human GABAA α2β2γ1 receptor (Homo sapiens (Human), UniProt P47869+Q8N1C3)
- test-name: Radioligand binding assay for γ1-containing GABAA subtypes, [3H]RO7239181 competition (α2β2γ1)
- setup-conditions: Ki h-GABAA α2β2γ1, displacement of [3H]RO7239181, membranes of HEK293F cells expressing human receptors, means of two determinations
pKi: −log10 of the molar value.
Recorded measurements of pKi, one per entry
property: pKi

[[record]]
smiles_structure = "C[C@@H]1N=C(c2ncccc2F)c2c(ccc(C(F)(F)F)c2Cl)-n2nc(C(=O)N3CC4(COC4)C3)nc21"
assay_system = "human GABAA α2β2γ1 receptor (Homo sapiens (Human), UniProt P47869+Q8N1C3)"
observed_measurement = 7.21

[[record]]
smiles_structure = "C[C@@H]1N=C(c2c(F)cccc2F)c2c(ccc(Cl)c2Cl)-n2nc(C(=O)N3CC(O)C3)nc21"
assay_system = "human GABAA α2β2γ1 receptor (Homo sapiens (Human), UniProt P47869+Q8N1C3)"
observed_measurement = 8.40

[[record]]
smiles_structure = "COC1CN(C(=O)c2cn3c(n2)CN=C(c2c(F)cccc2F)c2c-3ccc(Cl)c2Cl)C1"
assay_system = "human GABAA α2β2γ1 receptor (Homo sapiens (Human), UniProt P47869+Q8N1C3)"
observed_measurement = 8.19

[[record]]
smiles_structure = "C[C@@H]1N=C(c2ncccc2F)c2c(ccc(C(F)(F)F)c2Cl)-n2nc(C(=O)N3CC4(CCOC4)C3)nc21"
assay_system = "human GABAA α2β2γ1 receptor (Homo sapiens (Human), UniProt P47869+Q8N1C3)"
observed_measurement = 7.09

[[record]]
smiles_structure = "CCOC1CN(C(=O)c2nc3n(n2)-c2ccc(Cl)c(Cl)c2C(c2ncccc2F)=N[C@H]3C)C1"
assay_system = "human GABAA α2β2γ1 receptor (Homo sapiens (Human), UniProt P47869+Q8N1C3)"
observed_measurement = 7.43

[[record]]
smiles_structure = "C[C@@H]1N=C(c2c(F)cccc2F)c2c(ccc(C(F)(F)F)c2Cl)-n2nc(C(=O)NN(C)C)nc21"
assay_system = "human GABAA α2β2γ1 receptor (Homo sapiens (Human), UniProt P47869+Q8N1C3)"
observed_measurement = 7.70

[[record]]
smiles_structure = "C[C@@H]1N=C(c2c(F)cccc2F)c2c(ccc(C(F)(F)F)c2Cl)-n2nc(N3CCOC3=O)nc21"
assay_system = "human GABAA α2β2γ1 receptor (Homo sapiens (Human), UniProt P47869+Q8N1C3)"
observed_measurement = 8.26

[[record]]
smiles_structure = "C[C@@H]1N=C(c2c(F)cccc2F)c2c(ccc(C(F)(F)F)c2Cl)-n2cc(CO)nc21"
assay_system = "human GABAA α2β2γ1 receptor (Homo sapiens (Human), UniProt P47869+Q8N1C3)"
observed_measurement = 8.08

[[record]]
smiles_structure = "CCOC1CN(C(=O)c2cn3c(n2)[C@H](C)N=C(c2ncccc2F)c2c-3ccc(C(F)(F)F)c2Cl)C1"
assay_system = "human GABAA α2β2γ1 receptor (Homo sapiens (Human), UniProt P47869+Q8N1C3)"
observed_measurement = 7.03

[[record]]
smiles_structure = "C[C@@H]1N=C(c2ncccc2F)c2c(ccc(Cl)c2Cl)-n2nc(C(=O)N3CC4(CCCO4)C3)nc21"
assay_system = "human GABAA α2β2γ1 receptor (Homo sapiens (Human), UniProt P47869+Q8N1C3)"
observed_measurement = 7.83

[[record]]
smiles_structure = "C[C@@H]1N=C(c2c(F)cccc2F)c2c(ccc(Cl)c2Cl)-n2cc(C#N)nc21"
assay_system = "human GABAA α2β2γ1 receptor (Homo sapiens (Human), UniProt P47869+Q8N1C3)"
observed_measurement = 8.02

[[record]]
smiles_structure = "COC1CN(C(=O)c2nc3n(n2)-c2ccc(Cl)c(Cl)c2C(c2ncccc2F)=N[C@H]3C)C1"
assay_system = "human GABAA α2β2γ1 receptor (Homo sapiens (Human), UniProt P47869+Q8N1C3)"
observed_measurement = 7.55

[[record]]
smiles_structure = "C[C@@H]1N=C(c2ncccc2F)c2c(ccc(Cl)c2Cl)-n2nc(C(=O)N3CC4(CCOCC4)C3)nc21"
assay_system = "human GABAA α2β2γ1 receptor (Homo sapiens (Human), UniProt P47869+Q8N1C3)"
observed_measurement = 7.32

[[record]]
smiles_structure = "C[C@@H]1N=C(c2ncccc2F)c2c(ccc(C(F)(F)F)c2Cl)-n2cc(C(=O)N3CC(F)C3)nc21"
assay_system = "human GABAA α2β2γ1 receptor (Homo sapiens (Human), UniProt P47869+Q8N1C3)"
observed_measurement = 7.14

[[record]]
smiles_structure = "C[C@@H]1N=C(c2c(F)cccc2F)c2c(ccc(Cl)c2Cl)-n2nc(C#N)nc21"
assay_system = "human GABAA α2β2γ1 receptor (Homo sapiens (Human), UniProt P47869+Q8N1C3)"
observed_measurement = 7.21


----------
- assay-system: human GABAA α1β3γ2 receptor (Homo sapiens (Human), UniProt P14867+P18507)
- test-name: Radioligand binding assay for γ2-containing GABAA subtypes, [3H]Flumazenil competition (α1β3γ2)
- setup-conditions: Table 3; Ki α1β3γ2 (nM)/Ki α2β2γ1 (nM)
Recorded measurements of γ2/γ1 Selectivity Ratio, one per entry
property: γ2/γ1 Selectivity Ratio

[[record]]
compound = "CCOC(=O)c1nc2n(n1)-c1ccc(Cl)cc1C(c1ccccc1F)=NC2 [RE-B, reference compound]"
assay_system = "human GABAA α1β3γ2 receptor (Homo sapiens (Human), UniProt P14867+P18507)"
observed_measurement = 0.18

[[record]]
compound = "[2H]C([2H])([2H])N(C(=O)c1nc2n(n1)-c1ccc(Cl)c(Cl)c1C(c1c(F)cccc1F)=N[C@H]2C)C([2H])([2H])[2H]"
assay_system = "human GABAA α1β3γ2 receptor (Homo sapiens (Human), UniProt P14867+P18507)"
observed_measurement = 81.5

[[record]]
compound = "CN(C)C(=O)c1nc2n(n1)-c1ccc(Cl)cc1C(c1ccccc1F)=NC2 [RE-A, reference compound]"
assay_system = "human GABAA α1β3γ2 receptor (Homo sapiens (Human), UniProt P14867+P18507)"
observed_measurement = 0.13

[[record]]
compound = "CN(C)C(=O)c1nc2n(n1)-c1ccc(Cl)c(Cl)c1C(c1c(F)cccc1F)=NC2"
assay_system = "human GABAA α1β3γ2 receptor (Homo sapiens (Human), UniProt P14867+P18507)"
observed_measurement = 179.8


----------
Recorded measurements of log10 Ki, one per entry
- assay-system: human GABAA α5β2γ1 receptor (Homo sapiens (Human), UniProt P31644+Q8N1C3)
- test-name: Radioligand binding assay for γ1-containing GABAA subtypes, [3H]RO7239181 competition (α5β2γ1)
- Method: The affinity of compounds at GABAA γ1 subunit-containing receptors was measured by competition for [^3H]RO7239181 (67.3 Ci/mmol; Roche) binding to membranes from HEK293F cells (ThermoFisher R79007) expressing human (transiently transfected) receptors of composition α5β2γ1, α2β2γ1, α1β2γ1. […]
property: log10 Ki (log10 of the value in nM)

[[record]]
compound = "C[C@@H]1N=C(c2ncccc2F)c2c(ccc(C(F)(F)F)c2Cl)-n2cc(C(=O)N3CC(F)C3)nc21"
observed_measurement = 1.33

[[record]]
compound = "C[C@@H]1N=C(c2c(F)cccc2F)c2c(ccc(Cl)c2Cl)-n2nc(C(=O)N3CC4(CCO4)C3)nc21"
observed_measurement = 0.16

[[record]]
compound = "C[C@@H]1N=C(c2c(F)cccc2F)c2c(ccc(Cl)c2Cl)-n2nc(C(=O)NCCF)nc21"
observed_measurement = 0.14

[[record]]
compound = "C[C@@H]1N=C(c2ncccc2F)c2c(ccc(C(F)(F)F)c2Cl)-n2nc(C(=O)NCCF)nc21"
observed_measurement = 1.31

[[record]]
compound = "[2H]C([2H])([2H])OC1CN(C(=O)c2nc3n(n2)-c2ccc(Cl)c(Cl)c2C(c2c(F)cccc2F)=N[C@H]3C)C1"
observed_measurement = 0.11

[[record]]
compound = "COC1CN(C(=O)c2nc3n(n2)-c2ccc(C(F)(F)F)c(Cl)c2C(c2c(F)cccc2F)=N[C@H]3C)C1"
observed_measurement = 0.21

[[record]]
compound = "CC(=O)NCc1nc2n(n1)-c1ccc(Cl)c(Cl)c1C(c1c(F)cccc1F)=N[C@H]2C"
observed_measurement = -0.10

[[record]]
compound = "COCc1cn2c(n1)CN=C(c1c(F)cccc1F)c1c-2ccc(Cl)c1Cl"
observed_measurement = 0.08

[[record]]
compound = "CCOC1CN(C(=O)c2nc3n(n2)-c2ccc(C(F)(F)F)c(Cl)c2C(c2ncccc2F)=N[C@H]3C)C1"
observed_measurement = 0.82

[[record]]
compound = "C[C@@H]1N=C(c2c(F)cccc2F)c2c(ccc(Cl)c2Cl)-n2cc(C#N)nc21"
observed_measurement = -0.15

[[record]]
compound = "COC1CN(C(=O)c2nc3n(n2)-c2ccc(Cl)c(Cl)c2C(c2ncccc2F)=N[C@H]3C)C1"
observed_measurement = 0.65

[[record]]
compound = "Cc1cnc2n1-c1ccc(Cl)c(Cl)c1C(c1c(F)cccc1F)=N[C@H]2C"
observed_measurement = 0.09

[[record]]
compound = "COC1CN(C(=O)c2cn3c(n2)CN=C(c2ccccc2F)c2c-3ccc(Cl)c2Cl)C1"
observed_measurement = 0.50

[[record]]
compound = "C[C@@H]1N=C(c2ncccc2F)c2c(ccc(C(F)(F)F)c2Cl)-n2nc(C(=O)N3CC(OC(F)F)C3)nc21"
observed_measurement = 0.82

[[record]]
compound = "Cc1nnc(-c2nc3n(n2)-c2ccc(C(F)(F)F)c(Cl)c2C(c2ncccc2F)=N[C@H]3C)o1"
observed_measurement = 0.92

[[record]]
compound = "C[C@@H]1N=C(c2c(F)cccc2F)c2c(ccc(C(F)(F)F)c2Cl)-n2nc(C(=O)NN3CCCC3)nc21"
observed_measurement = 0.62

[[record]]
compound = "C[C@@H]1N=C(c2c(F)cccc2F)c2c(ccc(C(F)(F)F)c2Cl)-n2nc(C(=O)NCC#N)nc21"
observed_measurement = 0.42

[[record]]
compound = "C[C@@H]1N=C(c2c(F)cccc2F)c2c(ccc(C(F)(F)F)c2Cl)-n2nc(NC(=O)N3C4CC3CS(=O)(=O)C4)nc21 (single isomer, unassigned)"
observed_measurement = 0.37

[[record]]
compound = "CC1CN(C(=O)c2nc3n(n2)-c2ccc(C(F)(F)F)c(Cl)c2C(c2ncccc2F)=N[C@H]3C)C1"
observed_measurement = 0.97

[[record]]
compound = "CO[C@H]1CCN(C(=O)c2nc3n(n2)-c2ccc(Cl)c(Cl)c2C(c2c(F)cccc2F)=N[C@H]3C)C1"
observed_measurement = 0.34

[[record]]
compound = "C[C@@H]1N=C(c2c(F)cccc2F)c2c(ccc(Cl)c2Cl)-n2nc(N3CC(O)C3)nc21"
observed_measurement = 0.09

[[record]]
compound = "Cc1nc2n(n1)-c1ccc(Cl)c(Cl)c1C(c1c(F)cccc1F)=NC2"
observed_measurement = -0.22

[[record]]
compound = "C[C@@H]1N=C(c2c(F)cccc2F)c2c(ccc(Cl)c2Cl)-n2nc(C(=O)NC3(C#N)CC3)nc21"
observed_measurement = 0.16

[[record]]
compound = "CCOC1CN(C(=O)c2cn3c(n2)[C@H](C)N=C(c2ncccc2F)c2c-3ccc(C(F)(F)F)c2Cl)C1"
observed_measurement = 1.34

[[record]]
compound = "C[C@@H]1N=C(c2c(F)cccc2F)c2c(ccc(C(F)(F)F)c2Cl)-n2nc(C(=O)N3CCC3)nc21"
observed_measurement = 0.39

[[record]]
compound = "C[C@@H]1N=C(c2ncccc2F)c2c(ccc(C(F)(F)F)c2Cl)-n2cc(CO)nc21"
observed_measurement = 0.83

[[record]]
compound = "C[C@@H]1N=C(c2ncccc2F)c2c(ccc(C(F)(F)F)c2Cl)-n2cc(C(=O)N3CC(C(F)F)C3)nc21"
observed_measurement = 1.19

[[record]]
compound = "Cc1nc2n(n1)-c1ccc(Cl)c(Cl)c1C(c1c(F)cccc1F)=N[C@H]2C"
observed_measurement = -0.16

[[record]]
compound = "C[C@@H]1N=C(c2ncccc2F)c2c(ccc(C(F)(F)F)c2Cl)-n2nc(C(=O)N3CC(C(F)F)C3)nc21"
observed_measurement = 0.91

